Source: paper PMC5467183

test: physchem; details: pH 7.4, Sol. (kinetic solubility)
MEASURED METRIC: solubility kinetic

Ask: Fill in the blank: the reported solubility kinetic of `Cn1cc(-c2cccc(N3CCc4cc(C(C)(C)C)ccc4C3=O)c2CO)cc(Nc2ccncn2)c1=O` is ____.
Result: < 2 µM

###

assay: Rat pharmacokinetics; assay type: in vivo; conditions: in vivo, po, 5 mg/kg, pH 3
MEASURED METRIC: bioavailability (%)
// note: answer is a bare numeric in %

Ask: Fill in the blank: the reported bioavailability of `Cn1cc(-c2cccc(N3CCc4c(sc5c4CC(C)(C)C5)C3=O)c2CO)cc(Nc2ccncn2)c1=O` is ____.
Result: 37

###

details: human hepatocytes
Give HHep (projected hepatic clearance) for every item shown.

Ask: Fill in the blank: the reported HHep (projected hepatic clearance) of `Cn1cc(-c2cccc(N3CCn4c(cc5c4CCCC5)C3=O)c2CO)cc(Nc2ccc(N3CCN(C4COC4)CC3)cn2)c1=O` is ____.
Result: < 6

Ask: Fill in the blank: the reported HHep (projected hepatic clearance) of `Cn1cc(-c2cc(F)cc(N3CCn4c(cc5c4CCCC5)C3=O)c2CO)cc(Nc2ccc(N3CCN(C4COC4)CC3)cn2)c1=O` is ____.
Result: < 6

Ask: Fill in the blank: the reported HHep (projected hepatic clearance) of `CN1CCN(c2ccc(Nc3cc(-c4cc(F)cc(N5CCn6c(cc7c6CCCC7)C5=O)c4CO)cn(C)c3=O)nc2)CC1` is ____.
Result: < 6.2

Ask: Fill in the blank: the reported HHep (projected hepatic clearance) of `CN1CCN(c2ccc(Nc3cc(-c4cccc(N5CCn6c(cc7c6CCCC7)C5=O)c4CO)cn(C)c3=O)nc2)CC1` is ____.
Result: 10

###

Give RHep (projected hepatic clearance) for every item shown.
details: rat hepatocytes

Ask: Fill in the blank: the reported RHep (projected hepatic clearance) of `Cn1cc(-c2cccc(N3CCn4c(cc5c4CCCC5)C3=O)c2CO)cc(Nc2ccc(N3CCN(C4COC4)CC3)cn2)c1=O` is ____.
Result: < 10

Ask: Fill in the blank: the reported RHep (projected hepatic clearance) of `Cn1cc(-c2cc(F)cc(N3CCn4c(cc5c4CCCC5)C3=O)c2CO)cc(Nc2ccc(N3CCN(C4COC4)CC3)cn2)c1=O` is ____.
Result: < 10

Ask: Fill in the blank: the reported RHep (projected hepatic clearance) of `CN1CCN(c2ccc(Nc3cc(-c4cccc(N5CCn6c(cc7c6CCCC7)C5=O)c4CO)cn(C)c3=O)nc2)CC1` is ____.
Result: 12

Ask: Fill in the blank: the reported RHep (projected hepatic clearance) of `CN1CCN(c2ccc(Nc3cc(-c4cc(F)cc(N5CCn6c(cc7c6CCCC7)C5=O)c4CO)cn(C)c3=O)nc2)CC1` is ____.
Result: < 10.1

###

assay: Rat pharmacokinetics; format: in vivo; conditions: in vivo, iv, 1 mg/kg
MEASURED METRIC: clearance

Ask: Fill in the blank: the reported clearance of `Cn1cc(-c2cccc(N3CCc4c(sc5c4CC(C)(C)C5)C3=O)c2CO)cc(Nc2ccncn2)c1=O` is ____.
Result: 16 mL/min/kg
